- assay_explanation: yeast display, Sf9 membrane polyspecificity reagent, FACS + sequencing; frameworks hold sequencing errors
measurement_kind: polyreactivity (PSR sort gate)

QVQLVESGGGLVQAGGSLRLSCAASGITLHEYVMGWYRQAPGKERELVAAISRRGDSTYYADSVKGRFTISRDNAKNTVYLQMNSLKPEDTAVYYCAARWYWYWSSWDYYSWGQGTQVTVSS; low polyreactivity
QVKIVESVGGLVQSGGSLRLSCAASGRTFHRNARGLYREAPGTEREWVATITTNGGATDYADTVTGRFTSSRDNAKNTFYFHMHSQIPEDTAVYYCSAPFNPRVRPLGSVRMYYWGQGTQVTVSS; low polyreactivity
QVQLVESGGGLVQAGGSLRLSCAASGRIFGYNAMGWYRQAPGKERELVAAISGSGGSTYYADSVKGRFTISRDNAKNTVYLQMNSLKPEDTAVYYCATRHGRYPYTLDYWGQGTQVTVSS; low polyreactivity
QVQLVESGGGLVQAGGSLRLSCAASGNTFAQNTMGWYRQAPGKEREFVAGITFSGTGTYYADSVKGRFTISRDNAKNTVYLQMNSLKPEDTAVYYCAAESVYTWYYQDDDDYWGQGTQVTVSS; low polyreactivity

# map each sequence to its polyreactivity (PSR sort gate)
1. QVQLVESGGGLVQAGGSLRLSCAASGRTFHWYTLGWYRQAPGKEREFVAGINWSGARTYYADSVKGRFTISRDNAKNTVYLQMNSLKPEDTAVYYCNKRDRYRLYGYNYWGQGTQVTVSS
2. QVQLVESGGGLVQAGGSLRLSCAASGSTFDAYAMGWCRQAPGTERELVAAITNAGSTNYADSVKGRFTISRDNAKNTVYLQMNSLKPEDTAVYYCATDWYHRYLDGRYDYWVQGTQVTVSS
3. QVQLVESGGGLVQAGGSLRVSCAASGRILPFYAMGWYRQAPGKERELVATISWTSDSTYYADSVKGRFTISRDNAKNTVSLQMNSLKPEDTAVYYCAREYTYTYASTVIYDHWGQGTQVTVSS
4. QVQLVESGGGLVQAGGSLRLSCAASGFTFRKKAMGWYRQAPGKERELVAAIRGSAGSTYYADSVKGRFTNSRDNAKITVYLQMNSLQQEDTAVYYCATGGYPSLWYGYGYWGQGTQVTVSS
5. QDQLEDSGGGLVQAGGSLRLICAASGSIFDTYAMGWYRQAPGKERELVATISWSGDSTYYADSVKGRFTISRDNAKNTVYLQLNSLKPEDTAVYYCAATTDALVGRPRYDYWGQGTQVTVSS
6. QVQLVESGGGLVQAGGSLRLICAASGITIKRSAMGWYRQPPGKEREFVATISQSGTSTYYADSVKGLFTISRDNAKNTVYLQMNSLKPEDTAVYYCAADYIGYWYGYYSWGHGTQVTVSS
7. HVQLQESGGVLVQAGGSLRLSCAASGSIFQATYMGWYRQAPGKEREFVASITYGSITNYADSVKGRFTIGRDNAKDTLYLQMNSLKPEDTAVYYCADDRHYIPAFHYWGQGTQVTVSS

Given back:
1: high polyreactivity; 2: low polyreactivity; 3: low polyreactivity; 4: low polyreactivity; 5: low polyreactivity; 6: low polyreactivity; 7: low polyreactivity

Give one value of polyreactivity (PSR sort gate) per listed sequence.
1. QVQLVESGAGLVQAGGSLRLSCAASGSTFSYNAMGWYRQAPGKERELVAAISRRGDSTYYADSVKGRFTISRDNAKNTVYLQMNSLKTEDTAVYYCYAVTYYSHRYFSWYSRKGYDYWGQGTEVTVSS
2. QVQLVESGGGLVQAGGSLRLSCDASGRTSGINAMGWYRQAPGKERELVAAISSGGRTYYADSVKGRFTISRDNAKNTVYLQMNSLKPEDTAVYYCAAVIHWSLYRRMEYWGQGTQVTVSS
3. QVQLVESGGGLVQAGGSLRLSCAASGRTFLTNAMGWYRPAPGKERELVAAISSGASTNYADSVKGRFTISRDNAKNTVYLQMNSLKPEDTAVYYCAAQLTDYQSKTLSYDYWGQGTQVTVSS
4. QVQLVESGGGLVQAGGSLRLSCAASGSTFRYNAMGWYRQAPGKERELVAAITSSGSRTYYADSVKGRFTISRDNAKNTVYLQMNSLKPEDTAVYYCAAYGYYTKVTKYDYWGQGTQVNVSS
5. QVQLVESGGGLVQAGGSLRLSCSASGRIFHRYTMGWYRQSPGKEREFVAAITTRAGSTYYADSVKGRFTISRDNAKYTVFLQMNSLKPEDTAVYYCNIRRHSMFGGTTTRYDFWGQGTQVTVSS
6. QVQLVESGGGLVQAGGSLRLSCAASGLTFGDYTMGWYRQAPGKERELVAAITWSGASTYYADSVKGRFTISRDNAKNTVYLEMNSLKPEDTAGYYCAAERTPSYRAYDYWGQGTQVTVSS
7. QVQLVESGGGLVQAGGSLRLSCAASGSIFDVYAMGWYRQAPGKERELVAAITFSGGSTYYADSVKWRFTISRDNAKNTVYLQMNSLNPEDTAVYYCSVSRSYLYPVYGYYTWLGDYWGQGTQVTVSS
8. QVQLVESGRGLVQAGGSLRLSCAASGSTFLGNAMGWYREAPGKARELVAAITSAGSTYYADSVKGRFTISRDNAKNTVYLQMNSLKPEDTAVYYCNADSTWGGYGFDDWGQGTQVTVSS

Given back:
["high polyreactivity", "high polyreactivity", "low polyreactivity", "high polyreactivity", "high polyreactivity", "low polyreactivity", "low polyreactivity", "low polyreactivity"]

// each listed sequence needs a value for polyreactivity (PSR sort gate)
1. QVQLVESGGGLVQAGGSLRLSCAASGFIFGRYAMGWYRQAPGKERELVAAISRSGARTYYADSVKGRFTISRDNAKNTVYLQMNSLKPEDTAVYYCARYQPRVSFDYWGQGTQVTVSS
2. QVQLVESGGGLVQAGGSLRLSCAASGITFRGNAMGWYRQAPGKERELVATISSGGITNYADSVKGRFTISRDNAKNTVYLQMNSLKPEDTAVYSCAADLFVHKPRYQYSFDYWGQGTQVTVSS

Given back:
1. high polyreactivity
2. low polyreactivity
